Assay protocol: human hepatoma cell viability loss – ATP luminescence, cytotoxicity control for P. falciparum antimalarial project, primary screen (AID 2303);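 note: 0% = DMSO wells and 100% = digitonin-killed cells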
Run conditions: HepG2 viability, 24-48 h, at 10 µM, stronger effect = higher value
For each record, check the reported inhibition: if it is below 20% write Satisfied, else write Not satisfied.

Known results for compounds:
Compound	Cat
Cc1ccc(N/C(N)=N/c2ncccc2OCc2c(F)cccc2Cl)cc1	Not satisfied
CCc1nc(N)nc(N)c1CCCOc1ccccc1Cl	Not satisfied
O=C(Nc1ccc2c(c1)CCN(C1CCC1)CC2)c1cn(-c2ccccc2)nc1-c1ccccc1	Not satisfied
CC(=O)Nc1cccc(NC(=O)CSc2ccc(-c3nc4ccccc4[nH]3)cn2)c1	Not satisfied

Exercise: Hello, I'm reviewing records and need to know if inhibition of COc1cccc2cc(C(=O)N[C@@H](CC(C)C)C(=O)N[C@H](/C=N/NC(=O)OC(C)(C)C)Cc3ccccc3)oc12 is below 20%. Could you check?
Solution: Satisfied

====

Test system: L-lactate dehydrogenase (Plasmodium falciparum (isolate CDC / Honduras)) (UniProt Q27743)
Sequence (Q27743 whole entry, looked up): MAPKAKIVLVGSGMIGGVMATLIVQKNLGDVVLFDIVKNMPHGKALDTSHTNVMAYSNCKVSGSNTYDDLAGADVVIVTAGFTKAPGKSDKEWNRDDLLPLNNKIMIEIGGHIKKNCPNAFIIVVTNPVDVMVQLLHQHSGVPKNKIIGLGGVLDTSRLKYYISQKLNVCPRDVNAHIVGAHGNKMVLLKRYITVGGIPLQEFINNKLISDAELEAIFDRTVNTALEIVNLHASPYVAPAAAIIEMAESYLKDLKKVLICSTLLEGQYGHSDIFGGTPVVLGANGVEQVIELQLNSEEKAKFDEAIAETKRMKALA
Assay protocol: PfLDH activity inhibition – cell lysate, 3D7 strain, counter-screen for P. falciparum growth inhibition project (AID 2304);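 note: 0% = vehicle and 100% = reference inhibitor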
Run conditions: P. falciparum 3D7 crude extract, LDH APAD/NBT absorbance; at 2 µM; stronger effect = higher value
Readout type: inhibition (%)
Express it in %; write the number only.

// below: answered compounds
Compound	Test value
NC1CCN(c2nc(NCCCc3ccc(O)cc3)nc(NCc3cccc4ccccc34)n2)CC1	6
COc1ccc(N2CCN(CCCCNC(=O)c3ccc(NC(=O)c4ccc(OC(F)(F)F)cc4)cc3)CC2)c(OC)c1	5
COc1ccc(NC(=O)c2ccc(Br)c(C)c2)cc1N1CCN(CCCc2c[nH]c3ccccc23)CC1	0
CC(=O)Nc1ccc(OCCCCN(Cc2ccccc2C(F)(F)F)c2ccc(C(F)(F)F)c(C#N)c2)c(Cl)c1	-1
COc1ccc(N2CCN(C(CNC(=O)C3CCCCC3)c3ccc4c(c3)OCO4)CC2)cc1 (stereo not drawn)	-1

Exercise: Which inhibition is listed for CCCN(CCC)C(=S)N=Nc1c(O)[nH]c2ccccc12 ?
Solution: -3

Exercise: Repeat for the following compound: O=C(c1cc(C(=O)Nc2ccc(F)cc2)c(=O)n(-c2ccc(F)cc2)c1)c1cc(Cl)ccc1O
Solution: -4

====

Assay protocol: human hepatoma cell viability loss – ATP luminescence, cytotoxicity control for P. falciparum antimalarial project, primary screen (AID 2303);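 note: 0% = DMSO wells and 100% = digitonin-killed cells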
Run conditions: HepG2 viability, 24-48 h, at 10 µM, stronger effect = higher value
// reported inhibition per item
Express it in %; write the number only.

Compound	inhibition, %
c1ccc2c(CNc3nc(NCC4CCCCC4)nc4nc[nH]c34)cccc2c1	-2
CN(Cc1cccc(C#N)c1)C1CCN(c2cc(NC(=O)c3ccc(F)cc3)ccn2)CC1	4
Cc1cc(Cl)c(S(=O)(=O)NC(C)(C)C)cc1OCC(=O)NC1CCCCC1	10
C=C(C)Cn1cc(C2CCN(CCCCNC(=O)c3sc(-c4ccc(Cl)cc4Cl)nc3CO)CC2)c2ccccc21	22
CC(C)NCc1ccc(-c2ccc(-c3nc4ccc(C(F)(F)F)cc4[nH]3)cc2)cc1	16

Exercise: Which inhibition is listed for Cc1cccc2[nH]c(-c3ccc(-c4cccc(NCc5cn6cccnc6n5)c4)cc3)nc12 ?
Solution: 9

Exercise: Repeat for the following compound: CC(=O)Nc1cc(C(=O)Nc2cccc(-c3cccc(-c4nc5ccc(C(F)(F)F)cc5[nH]4)c3)c2)ccc1C
Solution: 56

Exercise: Repeat for the following compound: CCOc1ccc2c(NN=Cc3cccc([N+](=O)[O-])c3)cc(C)nc2c1
Solution: 4

Exercise: Repeat for the following compound: CCCc1cc(C(=O)N[C@@H](Cc2ccccc2)[C@H](O)CNC2CCOCC2)c(F)c(N2CCCCS2(=O)=O)c1
Solution: -6

Exercise: Repeat for the following compound: O=C(Nc1ccc(-c2ccccc2)cc1)Nc1cccc(Cn2ncc(N3CCNCC3)c(Cl)c2=O)c1
Solution: 30

====

Assay protocol: human hepatoma cell viability loss – ATP luminescence, cytotoxicity control for P. falciparum antimalarial project, primary screen (AID 2303);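 note: 0% = DMSO wells and 100% = digitonin-killed cells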
Run conditions: HepG2 viability, 24-48 h, at 10 µM
Activity calls are given as the source filed them.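 How the source made its calls: active means inhibition above 50%; inactive means the rest.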
// allowed return values: active, inactive

Compound	Cat
CCc1c[nH]c2c(N(c3ccccc3)S(C)(=O)=O)cc(C(=O)N[C@@H](Cc3ccccc3)[C@H](O)CNC(C)(C)CCCC(C)C)cc12	active
COc1cc(OC)cc(C(=O)Nc2ccc(Nc3nc(C)cc(N(C)C)n3)cc2)c1	inactive
O=C(Nc1ccc(OC2CCN(Cc3ccsc3)C2)c(Cl)c1)c1ccc2ncccc2c1 (centres undefined)	active

Okay, next one:
Exercise: Which outcome was entered for the compound CCCC(C)n1ccc2c3c(N)nc(N)nc3ccc21 (centres undefined) in this test?
Solution: active

====

// reported inhibition per item
Test system: L-lactate dehydrogenase (Plasmodium falciparum (isolate CDC / Honduras)) (UniProt Q27743)
Assay protocol: PfLDH activity inhibition – cell lysate, 3D7 strain, counter-screen for P. falciparum growth inhibition project (AID 2304);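 note: 0% = vehicle and 100% = reference inhibitor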
Run conditions: P. falciparum 3D7 crude extract, LDH APAD/NBT absorbance; at 2 µM; stronger effect = higher value
Express it in %; write the number only.

Molecule	Measure unit	inhibition
CC(=O)Nc1cccc(C(=O)Nc2ccc(-c3ccc(-c4nc5c(C)cccc5[nH]4)s3)cc2)c1	%	2
O=C(COc1ccccc1Cc1ccccc1)Nc1cc(Cl)ccc1-n1cncn1	%	-2
COc1cc2nc(NCc3ccc(S(N)(=O)=O)cc3)nc(Nc3ccc(Oc4ccccc4)cc3)c2cc1OC	%	-3
COc1ccc(CCNC(C)Cc2ccc(C(=O)Nc3ccc(CC(C)NCCc4cccc(Cl)c4)cc3)cc2)cc1 (stereo unspecified)	%	-10
O=C(/C=C/c1ccc(C(F)(F)F)cc1)N1CCC(CCN2CCC(c3c[nH]c4ccccc34)CC2)CC1	%	-11

Exercise: Which inhibition is listed for CC(Oc1cc(-n2cnc3ccc(NC(=O)CCN4CCCCC4)cc32)sc1C(N)=O)c1ccccc1Cl (stereo unspecified) ?
Solution: 1

Exercise: Repeat for the following molecule: CN(C)CCOc1ccc(-n2c(-c3nonc3N)nc3cncc(-c4ccc(F)cc4)c32)cc1
Solution: 5

Exercise: Repeat for the following molecule: CNCCNCc1ccc(-c2ccc(-c3nc4c(C)cccc4[nH]3)cc2)cc1
Solution: -5

Exercise: Repeat for the following molecule: O=C(Nc1cccc(C(F)(F)F)c1)Nc1cc(F)c(F)cc1Cl
Solution: 5

Exercise: Repeat for the following molecule: COc1ccc(Nc2cc(C)nc(NCc3ccc4c(c3)OCO4)n2)cc1
Solution: -2

Exercise: Repeat for the following molecule: CCN(CC)CCCN(C(=O)Nc1ccc(C#N)cc1)c1nc(-c2ccc(F)cc2)cs1
Solution: 0

====

Assay protocol: human hepatoma cell viability loss – ATP luminescence, cytotoxicity control for P. falciparum antimalarial project, primary screen (AID 2303);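 note: 0% = DMSO wells and 100% = digitonin-killed cells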
Run conditions: HepG2 viability, 24-48 h, at 10 µM, stronger effect = higher value
// reported inhibition per item
Express it in %; write the number only.

// below: answered compounds
Compound	inhibition, %
CCCNCc1ccc(-c2ccc(CNC3Cc4ccccc4C3)cc2)nc1	23
N#Cc1cc(C(=O)c2cc(Br)ccc2O)cn(-c2cc(Cl)cc(Cl)c2)c1=O	42
Oc1ccc(CC2CCCN(c3nc(NCCCOc4ccccc4-c4ccccc4)nc(N4CCNCC4)n3)C2)cc1 (stereo not drawn)	56
Cc1noc(-c2ccc3c(c2)CCN(CCC2CCC(NC(=O)/C=C/c4cccc(Cl)c4)CC2)CC3)n1 (stereo not drawn)	37
Cc1cc(=O)[nH]c(/N=C(/N)NOCCCc2ccccc2)n1	-4
CC(CN(C)C)C(=O)Nc1ccc(-c2csc(-c3nc4ccccc4[nH]3)c2)cc1 (stereo not drawn)	28
CN(C)c1ccc(N2C(N)=NC(N)=NC23CCCC3)cc1	1

Let us examine a further case.
Exercise: Which inhibition is listed for C=CCOC(=O)O[C@@H]1[C@@H](OC(=O)OCC=C)[C@@H](OC)O[C@H](COC(c2ccccc2)(c2ccccc2)c2ccccc2)[C@H]1OC(=O)OCC=C ?
Solution: 5

====

Assay protocol: inhibition of 3D7 malaria parasite growth – strain 3D7 (AID 2306);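 note: 0% = DMSO wells and 100% = chloroquine plus artemisinin control wells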
Run conditions: P. falciparum 3D7 erythrocytic growth, LDH absorbance, 72 h; at 2 µM; stronger effect = higher value
// reported growth inhibition per item
Express it in %; write the number only.

Molecule	growth inhibition (%)
COc1cc2c(cc1S(=O)(=O)c1ccc(NC(=O)c3cccc(C(F)(F)F)c3)cc1)CCN(C)CC2	92
CN1CCN(CCCN(Cc2cccc(-c3cccc(CNCc4ccc5c(c4)OCO5)c3)c2)C(=O)CCC2CCCC2)CC1	98

Exercise: Which growth inhibition is listed for c1ccc(CCNCc2ccc(-c3ccc(CNc4ccc5ncccc5c4)cc3)cc2)cc1 ?
Solution: 96

Exercise: Repeat for the following molecule: O=C(/C=C/c1ccc(Cl)c(Cl)c1)NCCCCCN1CCCC(CNS(=O)(=O)c2ccc(F)cc2)C1 (stereo not drawn)
Solution: 91

Exercise: Repeat for the following molecule: Cc1cc(N[C@@H](Cc2ccccc2)C(=O)NCc2cccc(F)c2)nc(Nc2ccccc2)n1
Solution: 100
